pIC50: −log10 of the molar value.
// compounds with pIC50 on TYRO3 (Homo sapiens, UniProt Q06418), multi-source literature

# annotated cases, reported pIC50 shown
| compound | measured endpoint | value |
| --- | --- | --- |
| COc1cc(-c2n[nH]c3ncc(-c4ccc5c(c4)CCC(C)(N4CCC[C@H]4C)CC5)cc23)ccc1OC[C@H]1COCCO1 (stereo partly shown) | pIC50 | 6.00 to 7.00 |
| COc1cc2nccc(Oc3cnc(NC(=O)c4cn(C5CCOCC5)cc(-c5ccc(F)cc5)c4=O)nc3)c2cc1OC | pIC50 | 7.11 |
| COC[C@H](C)Nc1ncc2c(-c3cnn(C(C)(C)C(=O)N4CCOCC4)c3)cc([C@H]3CC[C@H](O)CC3)n2n1 | pIC50 | ≥ 7.00 |

Short answer for CC(C)(O)c1ccc(-c2n[nH]c3ncc(-c4ccc5c(n4)CCC(N4CCCC4)CC5)cc23)cc1Cl (stereo not shown) : pIC50 was 6.00 to 7.00
